Consider the following molecules; for each one, report its activity at 100 µM.
- System name: human ABHD6 (Homo sapiens)
- Construct: expressed in transfected cells; host or cells: HEK293T (transient transfection; membrane fraction)
- Sequence (Q9BV23 whole entry): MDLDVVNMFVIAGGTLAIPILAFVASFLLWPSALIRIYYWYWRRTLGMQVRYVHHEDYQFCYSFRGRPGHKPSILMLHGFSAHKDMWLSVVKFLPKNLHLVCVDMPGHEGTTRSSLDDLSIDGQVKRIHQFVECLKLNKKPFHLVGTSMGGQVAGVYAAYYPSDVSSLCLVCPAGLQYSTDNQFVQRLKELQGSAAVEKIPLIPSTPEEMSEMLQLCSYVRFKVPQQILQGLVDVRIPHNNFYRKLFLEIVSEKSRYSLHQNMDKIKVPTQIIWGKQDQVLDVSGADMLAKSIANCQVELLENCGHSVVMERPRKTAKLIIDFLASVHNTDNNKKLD
- Protocol description: ABHD6 activity assay (AA-HNA fluorogenic substrate)
- Type: biochemical
- Run conditions: 100 µM, AA-HNA substrate assay, Supplementary Table 2; read-out: ABHD6 Inhibition (%)
Just the number please, in %, no unit attached.

What the record says about `C[C@@H]1O[C@@H](O[C@H]2[C@H](Oc3cc(O)c4c(c3)O[C@H](c3ccc(O)cc3)CC4=O)O[C@H](CO)[C@@H](O)[C@@H]2O)[C@H](O)[C@H](O)[C@H]1O` : activity at 100 µM is 104

What the record says about `C[C@H]1COC2=C1C(=O)C(=O)c1c2ccc2c1CCCC2(C)C` : activity at 100 µM is 62.5

What the record says about `C[C@H]1[C@H](C)CC[C@]2(C(=O)O)CC[C@]3(C)C(=CC[C@@H]4[C@@]5(C)C[C@@H](O)[C@H](O)[C@@](C)(CO)[C@@H]5CC[C@]43C)[C@H]12` : activity at 100 µM is 95.6

What the record says about C[C@H]1[C@H](OC(=O)CCC(=O)O)O[C@@H]2O[C@@]3(C)CC[C@H]4[C@H](C)CC[C@@H]1[C@@]24OO3 [compound 11, Artesunate] : activity at 100 µM is 46.5

What the record says about `COc1ccc(-c2cc(=O)c3c(OC)c(OC)c(OC)c(OC)c3o2)cc1OC` : activity at 100 µM is 100

What the record says about `C[C@@H]1O[C@@H](OC[C@H]2O[C@@H](Oc3c(-c4ccc(O)c(O)c4)oc4cc(O)cc(O)c4c3=O)[C@H](O)[C@@H](O)[C@@H]2O)[C@H](O)[C@H](O)[C@H]1O` : activity at 100 µM is 119
